test system: Raf-1^gof intestinal tumors; conditions: screen of 480 ICCB compounds in vials; compounds fed to flies with one-day old Raf-1^gof tumors, assessed three days later; esg-Gal4 luciferase; also: test concentration or dose not given here
Square brackets hold non-standard residues; d marks the D form. Peptide text beside a SMILES is read from it. * marks the point of attachment. Sta = CC(C)C[C@H](N)[C@@H](O)CC(=O)O; Isovaleryl = CC(C)CC(=O)*; Nle = CCCC[C@H](N)C(=O)O
Field: class. Source value: Log2 (fold) (luciferase activity, log2 of the fold difference relative to DMSO controls). Ranges: lower range = under -0.4, middle range = from -0.4 up to -0.3, upper range = -0.3 and over

MOLECULE	DISCRETE_LABEL
CCCCCCCCCCCCCCC[C@@H](O)[C@H](CO)NC(=O)CCCCCCC [C8 DIHYDROCERAMIDE]	lower range
C=C[C@H]1C[N@@]2CC[C@H]1C[C@@H]2[C@@H](O)c1ccnc2ccc(OC)cc12	middle range
O=C1Nc2ccc(I)cc2/C1=C/c1cc(Br)c(O)c(Br)c1	middle range
CCCCCCOC(=O)[C@]1(O)C[C@@H]2O[C@@]1(C)n1c3ccccc3c3c4c(c5c6ccccc6n2c5c31)C(=O)NC4	upper range
CCCCCCCCCCCCCCCCOCC(CO)OC (stereo not shown)	upper range
N#CC(C#N)=NNc1ccc(OC(F)(F)F)cc1	middle range
CCCC[C@@H](C=O)NC(=O)[C@H](CC(C)C)NC(=O)[C@H](CC(C)C)NC(C)=O [Ac-Leu-Leu-Nle-CHO] (Ac-Leu-Leu-[Nle]-aldehyde)	lower range
CN(Cc1cnc2nc(N)nc(N)c2n1)c1ccc(C(=O)N[C@@H](CCC(=O)O)C(=O)O)cc1 [Methotrexate]	lower range
CC(C)CC(=O)N[C@H](C(=O)N[C@H](C(=O)N[C@@H](CC(C)C)[C@@H](O)CC(=O)N[C@@H](C)C(=O)N[C@@H](CC(C)C)[C@@H](O)CC(=O)O)C(C)C)C(C)C [pepstatin] (Isovaleryl-VV[Sta]A[Sta]-OH)	lower range
CCCCC/C=C\C/C=C\CCCCCCCC(=O)NCC(=O)O	upper range
O=C(O)c1ccccc1Nc1cccc(C(F)(F)F)c1	upper range
COc1cccc2c1cc([N+](=O)[O-])c1c(C(=O)O)cc3c(c12)OCO3 [aristolochic acid, reference compound]	lower range
O=C(NCCCCCCNC(=O)ON=C1CCCCC1)ON=C1CCCCC1	upper range
Cc1coc2c1C(=O)C(=O)c1c-2ccc2c1CCCC2(C)C	lower range
CCCCC[C@H](O)/C=C/C1=C(C/C=C\CCCC(=O)O)C(=O)CC1	middle range

Source: patent US20130096067A1
